Ref: patent US20130323786A1

List of Fold-Improvement values.
biological target: LINGO-1 (human) (UniProt Q96FE5); assay: affinity vs parent Li62 Fab; method not stated
All answers are understood in fold, so give the number only.

Li62 variant G08 Fab (VH CDR3 SEQ ID NO:27) (Fab, V domains shown) VH: EVQLLESGGGLVQPGGSLRLSCAASGFTFSIYPMFWVRQAPGKGLEWVSWIGPSGGITKYADSVKGRFTISRDNSKNTLYLQMNSLRAEDTATYYCAREGQYDWYFDVWGRGTLVTVSS VL: DIQMTQSPSFLSASVGDSVAITCRASQDISRYLAWYQQRPGKAPKLLIYDASNLQTGVPSRFSGSGSGTDFTFTITSLQPEDFGTYYCQQYDTLHPSFGPGTTVDIK :: 10

Asked: Which value of Fold-Improvement has been reported for Li62 variant B12 Fab (VH CDR3 SEQ ID NO:18) (Fab, V domains shown) VH: EVQLLESGGGLVQPGGSLRLSCAASGFTFSIYPMFWVRQAPGKGLEWVSWIGPSGGITKYADSVKGRFTISRDNSKNTLYLQMNSLRAEDTATYYCAREGQYDWYFDVWGRGTLVTVSS VL: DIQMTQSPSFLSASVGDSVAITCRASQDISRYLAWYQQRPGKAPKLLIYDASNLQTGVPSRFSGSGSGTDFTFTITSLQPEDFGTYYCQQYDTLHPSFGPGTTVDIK in the records?
Given back: 8
